biological target: human wildtype CFTR (Homo sapiens); construct: expressed in transfected cells; host or cells: Fischer rat thyroid (FRT) cells; assay: Fluorescence platereader assay of CFTR-mediated iodide influx (YFP quenching) in FRT cells; type: cell-based; conditions: FRT; Table 2; screening, 25 μM; read-out: % Inhibition at 25 μM
Rule: inhibition at 25 µM of 40% or more gives MET; anything lower gives NOT MET.

Q. Dear colleague, could you confirm whether Cc1ccc(C2Nc3cc(C)c(C)cc3-n3c(-c4ccccc4)c4c(=O)n(C)c(=O)n(C)c4c32)o1 (centres unmarked) has inhibition at 25 µM at or above 40%?
A. MET

Q. Item Cc1ccc(C2Nc3ccccc3-n3c(-c4ccc(Cl)cc4)c4c(=O)n(C)c(=O)n(C)c4c32)o1 (centres unmarked) with inhibition at 25 µM of 40% or above?
A. MET

Q. Could you please find out whether C=CCc1cccc(C2Nc3ccccc3-n3c(-c4ccccc4)c4c(=O)n(C)c(=O)n(C)c4c32)c1O (centres unmarked) has inhibition at 25 µM that meets 40% or exceeds it?
A. NOT MET

Q. Record Cc1ccccc1-c1c2c(=O)n(C)c(=O)n(C)c2c2n1-c1ccccc1NC2c1cccs1 (centres unmarked) ; criterion: inhibition at 25 µM no lower than 40%. Met?
A. MET

Q. inhibition at 25 µM >= 40% for Cn1c(=O)c2c(-c3ccccc3)n3c(c2n(C)c1=O)C(c1ccccc1F)Nc1ccccc1-3 (centres unmarked) ?
A. MET

Q. Record Cc1cccc(-c2c3c(=O)n(C)c(=O)n(C)c3c3n2-c2ccccc2NC3c2ccco2)c1 (centres unmarked) ; criterion: inhibition at 25 µM no lower than 40%. Met?
A. MET

Q. Test whether the compound COc1ccc(O)c(C2Nc3ccccc3-n3c(-c4ccccc4)c4c(=O)n(C)c(=O)n(C)c4c32)c1 (centres unmarked) records inhibition at 25 µM of 40% or higher.
A. NOT MET

Q. Decide: is the reported value of inhibition at 25 µM for Cn1c(=O)c2c(-c3ccccc3)n3c(c2n(C)c1=O)C(c1cccc(O)c1O)Nc1ccccc1-3 (centres unmarked) equal to or greater than 40%?
A. NOT MET

====

target: human wildtype CFTR (Homo sapiens, UniProt P13569); construct: expressed in transfected cells; host or cells: Fischer rat thyroid (FRT) cells; experiment: Fluorescence platereader assay of CFTR-mediated iodide influx (YFP quenching) in FRT cells; type: cell-based; details: FRT, read-out: % inhibition at 25/5 μM (5 μM value); Table 1; 5 μM compound
Sequence (P13569 whole entry): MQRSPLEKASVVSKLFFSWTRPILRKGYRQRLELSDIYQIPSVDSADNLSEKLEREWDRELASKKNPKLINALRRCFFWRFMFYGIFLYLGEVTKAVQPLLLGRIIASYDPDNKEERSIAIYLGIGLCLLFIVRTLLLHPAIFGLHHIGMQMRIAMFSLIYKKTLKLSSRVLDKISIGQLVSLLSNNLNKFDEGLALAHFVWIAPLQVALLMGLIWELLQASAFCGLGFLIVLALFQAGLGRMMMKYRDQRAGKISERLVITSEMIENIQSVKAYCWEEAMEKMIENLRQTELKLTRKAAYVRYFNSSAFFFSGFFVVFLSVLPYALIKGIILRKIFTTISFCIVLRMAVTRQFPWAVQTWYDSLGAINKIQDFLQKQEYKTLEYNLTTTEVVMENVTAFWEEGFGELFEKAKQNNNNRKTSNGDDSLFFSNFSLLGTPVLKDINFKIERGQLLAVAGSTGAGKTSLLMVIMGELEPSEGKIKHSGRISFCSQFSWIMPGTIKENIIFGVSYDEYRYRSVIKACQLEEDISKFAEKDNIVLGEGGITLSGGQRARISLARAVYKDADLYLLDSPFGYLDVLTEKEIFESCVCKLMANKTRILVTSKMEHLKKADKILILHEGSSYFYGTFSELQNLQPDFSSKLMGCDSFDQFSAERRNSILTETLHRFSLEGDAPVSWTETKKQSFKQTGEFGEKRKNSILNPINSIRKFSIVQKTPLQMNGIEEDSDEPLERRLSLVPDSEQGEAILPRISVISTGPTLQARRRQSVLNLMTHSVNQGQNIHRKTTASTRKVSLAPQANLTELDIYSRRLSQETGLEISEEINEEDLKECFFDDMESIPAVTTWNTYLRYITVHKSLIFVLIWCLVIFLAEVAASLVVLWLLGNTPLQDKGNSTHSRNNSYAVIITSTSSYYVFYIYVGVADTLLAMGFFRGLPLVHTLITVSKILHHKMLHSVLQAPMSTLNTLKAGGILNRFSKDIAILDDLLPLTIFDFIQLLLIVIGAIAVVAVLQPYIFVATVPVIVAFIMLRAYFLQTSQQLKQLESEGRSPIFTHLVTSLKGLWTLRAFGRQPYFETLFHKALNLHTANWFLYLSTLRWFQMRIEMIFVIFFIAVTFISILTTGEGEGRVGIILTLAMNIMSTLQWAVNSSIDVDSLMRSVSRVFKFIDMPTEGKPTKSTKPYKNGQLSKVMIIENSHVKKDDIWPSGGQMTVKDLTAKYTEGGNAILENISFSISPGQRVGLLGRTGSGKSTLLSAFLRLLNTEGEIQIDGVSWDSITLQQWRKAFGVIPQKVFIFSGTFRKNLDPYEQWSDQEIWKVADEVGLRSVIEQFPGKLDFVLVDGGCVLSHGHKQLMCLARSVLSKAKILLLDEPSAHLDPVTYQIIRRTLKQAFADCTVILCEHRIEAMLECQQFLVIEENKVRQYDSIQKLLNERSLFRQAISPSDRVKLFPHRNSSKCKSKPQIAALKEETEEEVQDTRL
RECORDED ENDPOINT: inhibition at 5 µM (%)
Just the number in %, nothing appended.

Q. inhibition at 5 µM lookup needed for Cn1c(=O)c2c(-c3ccccc3F)n3c(c2n(C)c1=O)C(c1cccc(Cl)c1)Nc1ccccc1-3 (stereo not shown) [PPQ-214] , thanks.
A. 70

Q. Quick one: inhibition at 5 µM for Cc1cccc(-c2c3c(=O)n(C)c(=O)n(C)c3c3n2-c2ccccc2NC3c2cccc(F)c2)c1 (stereo not shown) [PPQ-219] ?
A. 53

Q. State the recorded inhibition at 5 µM for this entry: Cn1c(=O)c2c(-c3ccccc3)n3c(c2n(C)c1=O)C(c1cccc(F)c1F)Nc1ccccc1-3 (stereo not shown) [PPQ-201]
A. 72

Q. Which inhibition at 5 µM is listed for COc1cccc(C2Nc3ccccc3-n3c(-c4cccc(C)c4)c4c(=O)n(C)c(=O)n(C)c4c32)c1 (stereo not shown) [PPQ-210] ?
A. 73

====

Hi there, I'd appreciate the recorded inhibition at 5 µM for every entry that follows.
target: human wildtype CFTR (Homo sapiens); construct: expressed in transfected cells; host or cells: Fischer rat thyroid (FRT) cells; test: Fluorescence platereader assay of CFTR-mediated iodide influx (YFP quenching) in FRT cells; type: cell-based; details: FRT; Table 2; screening, 5 μM; read-out: % Inhibition at 5 μM
Return type: number; implicit unit %.

Q. Fill in: inhibition at 5 µM of Cn1c(=O)c2c(-c3ccccc3)n3c(c2n(C)c1=O)C(c1ccc2c(c1)OCO2)Nc1ccccc1-3 (stereo not shown) is ___
A. 28

Q. Fill blank: measured inhibition at 5 µM of the molecule Cn1c(=O)c2c(-c3ccccc3)n3c(c2n(C)c1=O)C(c1cccc([N+](=O)[O-])c1)Nc1ccccc1-3 (stereo not shown) is ____.
A. 60

Q. What does the data say about its inhibition at 5 µM? Entry: Cc1cccc(-c2c3c(=O)n(C)c(=O)n(C)c3c3n2-c2ccccc2NC3c2ccc(F)cc2)c1 (stereo not shown)
A. 22

====

Provide the recorded IC50 for the entries that follow.
molecular target: human wildtype CFTR (Homo sapiens, UniProt P13569); construct: expressed in transfected cells; host or cells: Fischer rat thyroid (FRT) cells; assay: Fluorescence platereader assay of CFTR-mediated iodide influx (YFP quenching) in FRT cells; assay type: cell-based; conditions: apparent IC50 from concentration-inhibition data, fluorescence platereader assay
Write it as a number; the unit nM goes unstated.

Q. Entry Cc1ccccc1-c1c2c(=O)n(C)c(=O)n(C)c2c2n1-c1ccccc1NC2c1cccc([N+](=O)[O-])c1 (stereo not shown) : reported IC50 = ?
A. 2000

Q. Dear colleague, I am looking for the recorded IC50 of the following compound: Cc1cc2c(cc1C)-n1c(-c3ccccc3)c3c(=O)n(C)c(=O)n(C)c3c1C(c1ccc(O)cc1)N2 (stereo not shown)
A. 1500

Q. // IC50 lookup, key: Cc1cccc(-c2c3c(=O)n(C)c(=O)n(C)c3c3n2-c2ccccc2NC3c2ccc(C)o2)c1 (stereo not shown)
A. 700

Q. Look up IC50 for this compound: Cn1c(=O)c2c(-c3ccccc3)n3c(c2n(C)c1=O)C(c1cccc(F)c1F)Nc1ccccc1-3 (stereo not shown)
A. 1200

====

Assign inhibition at 25 µM to each entry below.
target: human wildtype CFTR (Homo sapiens, UniProt P13569); construct: expressed in transfected cells; host or cells: Fischer rat thyroid (FRT) cells; assay: Fluorescence platereader assay of CFTR-mediated iodide influx (YFP quenching) in FRT cells; assay type: cell-based; conditions: FRT; Table 2; screening, 25 μM; read-out: % Inhibition at 25 μM
# unit: % | format: bare number

Q. What measured inhibition at 25 µM goes with COc1ccc(-c2c3c(=O)n(C)c(=O)n(C)c3c3n2-c2ccccc2NC3c2ccccc2F)cc1 (stereo not shown) ?
A. 39

Q. Give its inhibition at 25 µM value. Item: Cn1c(=O)c2c(-c3ccccc3F)n3c(c2n(C)c1=O)C(c1ccc(F)cc1)Nc1ccccc1-3 (stereo not shown) [PPQ-233]
A. 82

Q. Dear colleague, I am looking for the recorded inhibition at 25 µM of the following molecule: Cc1cc2c(cc1C)-n1c(-c3ccccc3)c3c(=O)n(C)c(=O)n(C)c3c1C(c1cc(O)ccc1O)N2 (stereo not shown) [PPQ-247]
A. 58

Q. Looking for the measured inhibition at 25 µM of Cn1c(=O)c2c(-c3ccccc3)n3c(c2n(C)c1=O)C(c1ccc2c(c1)OCO2)Nc1ccccc1-3 (stereo not shown) [PPQ-301] , can you help?
A. 58

====

target: human wildtype CFTR (Homo sapiens); construct: expressed in transfected cells; host or cells: Fischer rat thyroid (FRT) cells; test: Fluorescence platereader assay of CFTR-mediated iodide influx (YFP quenching) in FRT cells; assay type: cell-based; details: FRT, read-out: % inhibition at 25/5 μM (25 μM value); Table 1; 25 μM compound
Record form. Attribute: inhibition at 25 µM. Fill in for each entry.
// return numeric value only (unit: %, not printed)

Q. Returns the measured inhibition at 25 µM for the input molecule. Input: COc1cccc(C2Nc3ccccc3-n3c(-c4ccccc4)c4c(=O)n(C)c(=O)n(C)c4c32)c1 (stereo not shown)
A. 86

Q. Given the molecule COc1cc(O)ccc1C1Nc2ccccc2-n2c(-c3ccccc3)c3c(=O)n(C)c(=O)n(C)c3c21 (stereo not shown) , what is its reported inhibition at 25 µM?
A. 56

Q. Which inhibition at 25 µM value is on record for Cc1cccc(-c2c3c(=O)n(C)c(=O)n(C)c3c3n2-c2ccccc2NC3c2ccc(O)cc2)c1 (stereo not shown) ?
A. 94

Q. Record request: inhibition at 25 µM value, item Cc1cccc(-c2c3c(=O)n(C)c(=O)n(C)c3c3n2-c2ccccc2NC3c2cccc(F)c2)c1 (stereo not shown)
A. 93

====

biological target: human wildtype CFTR (Homo sapiens); construct: expressed in transfected cells; host or cells: Fischer rat thyroid (FRT) cells; experiment: Fluorescence platereader assay of CFTR-mediated iodide influx (YFP quenching) in FRT cells; type: cell-based; conditions: FRT; Table 2; screening, 25 μM; read-out: % Inhibition at 25 μM
RECORDED ENDPOINT: inhibition at 25 µM (%)
The answer is to be given in %; state only the numeric part.

Q. inhibition at 25 µM lookup needed for COc1ccc(-c2c3c(=O)n(C)c(=O)n(C)c3c3n2-c2ccccc2NC3c2cccc(F)c2F)cc1 (centres unmarked) , thanks.
A. 78

Q. May I ask what inhibition at 25 µM has been recorded for Cn1c(=O)c2c(-c3ccccc3)n3c(c2n(C)c1=O)C(c1ccco1)Nc1ccccc1-3 (centres unmarked) ?
A. 54

Q. Would you kindly share the measured inhibition at 25 µM for Cc1cccc(-c2c3c(=O)n(C)c(=O)n(C)c3c3n2-c2ccccc2NC3c2cccc(O)c2)c1 (centres unmarked) ?
A. 83

Q. Reported inhibition at 25 µM, compound Cn1c(=O)c2c(-c3ccccc3F)n3c(c2n(C)c1=O)C(c1ccc(O)cc1O)Nc1ccccc1-3 (centres unmarked) : ____
A. 36

Q. Please give the measured inhibition at 25 µM for this compound: Cn1c(=O)c2c(-c3ccccc3)n3c(c2n(C)c1=O)C(c1cccs1)Nc1ccccc1-3 (centres unmarked)
A. 77

Q. I'd like to know its inhibition at 25 µM. The compound in question is Cn1c(=O)c2c(-c3ccccc3F)n3c(c2n(C)c1=O)C(c1cccs1)Nc1ccccc1-3 (centres unmarked)
A. 76

Q. So what's the measured inhibition at 25 µM for this one? Cc1cc2c(cc1C)-n1c(-c3ccccc3)c3c(=O)n(C)c(=O)n(C)c3c1C(c1ccccc1)N2 (centres unmarked)
A. 92

Q. What value of measured inhibition at 25 µM is listed for COc1ccc(-c2c3c(=O)n(C)c(=O)n(C)c3c3n2-c2ccccc2NC3c2cccc(C)c2)cc1 (centres unmarked) ?
A. 35

Q. For the compound shown here, Cc1cc2c(cc1C)-n1c(-c3ccccc3)c3c(=O)n(C)c(=O)n(C)c3c1C(c1ccco1)N2 (centres unmarked) , give the reported inhibition at 25 µM.
A. 87

Q. Item under review: Cc1cccc(C2Nc3ccccc3-n3c(-c4ccccc4)c4c(=O)n(C)c(=O)n(C)c4c32)c1 (centres unmarked) . Reported inhibition at 25 µM?
A. 67

Q. Give its inhibition at 25 µM value. Item: Cc1ccccc1C1Nc2ccccc2-n2c(-c3ccccc3)c3c(=O)n(C)c(=O)n(C)c3c21 (centres unmarked)
A. 41

Q. Query (compound): Cc1ccccc1-c1c2c(=O)n(C)c(=O)n(C)c2c2n1-c1ccccc1NC2c1ccccc1 (centres unmarked) ; field requested: inhibition at 25 µM
A. 94

Q. Given the compound CCOc1ccc(C2Nc3ccccc3-n3c(-c4ccccc4C)c4c(=O)n(C)c(=O)n(C)c4c32)cc1 (centres unmarked) , what is its reported inhibition at 25 µM?
A. 32

Q. So what does the record say about inhibition at 25 µM for Cc1ccc(C2Nc3ccccc3-n3c(-c4ccccc4C)c4c(=O)n(C)c(=O)n(C)c4c32)cc1 (centres unmarked) ?
A. 38

Q. Which value of inhibition at 25 µM has been reported for Cc1cc2c(cc1C)-n1c(-c3ccccc3F)c3c(=O)n(C)c(=O)n(C)c3c1C(c1ccccc1F)N2 (centres unmarked) in the records?
A. 35

Q. Given the compound Cc1ccccc1-c1c2c(=O)n(C)c(=O)n(C)c2c2n1-c1ccccc1NC2c1ccco1 (centres unmarked) , what is its reported inhibition at 25 µM?
A. 70

Q. Suppose we examine the compound Cc1cccc(-c2c3c(=O)n(C)c(=O)n(C)c3c3n2-c2ccccc2NC3c2ccc(O)c(O)c2)c1 (centres unmarked) ; what inhibition at 25 µM value has been reported?
A. 72

Q. # inhibition at 25 µM lookup, item Cc1cccc(-c2c3c(=O)n(C)c(=O)n(C)c3c3n2-c2ccccc2NC3c2ccc(O)cc2)c1 (centres unmarked)
A. 94

Q. Consider the compound shown here: COc1cccc(C2Nc3ccccc3-n3c(-c4ccccc4)c4c(=O)n(C)c(=O)n(C)c4c32)c1 (centres unmarked) What is its recorded inhibition at 25 µM?
A. 86

Q. Item Cn1c(=O)c2c(-c3ccc(Cl)cc3)n3c(c2n(C)c1=O)C(c1ccccc1)Nc1ccccc1-3 (centres unmarked) has what recorded inhibition at 25 µM?
A. 34

Q. # get_value(readout='inhibition at 25 µM', item= COc1ccc(-c2c3c(=O)n(C)c(=O)n(C)c3c3n2-c2ccccc2NC3c2cccc(OC)c2)cc1 (centres unmarked) )
A. 47

Q. For the compound COc1cc(O)ccc1C1Nc2ccccc2-n2c(-c3ccccc3F)c3c(=O)n(C)c(=O)n(C)c3c21 (centres unmarked) , what inhibition at 25 µM is on record?
A. 41

Q. Request the reported inhibition at 25 µM associated with Cn1c(=O)c2c(-c3ccccc3)n3c(c2n(C)c1=O)C(c1cc([N+](=O)[O-])ccc1O)Nc1ccccc1-3 (centres unmarked)
A. 40

Q. Fill in the blank: the reported inhibition at 25 µM of Cc1cccc(-c2c3c(=O)n(C)c(=O)n(C)c3c3n2-c2ccccc2NC3c2ccc3c(c2)OCO3)c1 (centres unmarked) is ____.
A. 63

Q. For the compound COc1cc(C2Nc3ccccc3-n3c(-c4ccccc4C)c4c(=O)n(C)c(=O)n(C)c4c32)ccc1O (centres unmarked) , what inhibition at 25 µM is on record?
A. 78

Q. GET /values?readout=inhibition at 25 µM&item= COc1ccc(C2Nc3ccccc3-n3c(-c4ccc(Cl)cc4)c4c(=O)n(C)c(=O)n(C)c4c32)cc1 (centres unmarked)
A. 31

Q. I'd like to know its inhibition at 25 µM. The compound in question is Cc1ccc(C2Nc3ccccc3-n3c(-c4ccccc4F)c4c(=O)n(C)c(=O)n(C)c4c32)cc1 (centres unmarked)
A. 58

Q. For the compound shown here, COc1ccc(O)c(C2Nc3ccccc3-n3c(-c4cccc(C)c4)c4c(=O)n(C)c(=O)n(C)c4c32)c1 (centres unmarked) , give the reported inhibition at 25 µM.
A. 50

Hey, just so you know, these numbers are from patent US8609661B2.
